Recorded values, source ChEMBL document CHEMBL3885881.

# Organism: Rattus norvegicus
# ASSAY NOTES: DrugMatrix - Regimen: Daily Repeat
# Format: toxicity, organism-based, Sprague-Dawley
# Set-up: regimen Daily Repeat, gender Male, age 6-8 weeks
# REPORTED CONDITIONS: in vivo, po, 0 mg/kg, 72 h, tissue Blood, route oral GAVAGE, dose level Control, time 3 day, vehicle .5 % CMC
METRIC: MEAN CORPUSCULAR HEMOGLOBIN CONCENTRATION (G/DL)

• CCCCc1oc2ccccc2c1C(=O)c1cc(I)c(OCCN(CC)CC)c(I)c1 = 39.44
• Cc1ccc(/N=C/N(C)/C=N/c2ccc(C)cc2C)c(C)c1 = 38.85
• CN1CCN(CCCN2c3ccccc3Sc3ccc(Cl)cc32)CC1 = 38.82
• Cc1ccc2cc3c(ccc4ccccc43)c3c2c1CC3 = 31.32
• CC(C)(C)NC(=O)[C@@H]1C[C@@H]2CCCC[C@@H]2CN1C[C@@H](O)[C@H](Cc1ccccc1)NC(=O)[C@H](CC(N)=O)NC(=O)c1ccc2ccccc2n1 = 36.85
• ClC(Cl)Br = 37.32
• Nc1ccn([C@H]2CC[C@@H](CO)O2)c(=O)n1 = 33.95
• OCCN(CCO)c1nc(N2CCCCC2)c2nc(N(CCO)CCO)nc(N3CCCCC3)c2n1 = 39.5
• O=C(CCCN1CC=C(n2c(=O)[nH]c3ccccc32)CC1)c1ccc(F)cc1 = 30.47
• COc1nc(C)nc(Cl)c1N=C1NCCN1 = 38.88
• ClC(Br)Br = 37.32
• Cc1nc2n(c(=O)c1CCN1CCC(c3noc4cc(F)ccc34)CC1)CCCC2 = 39.44
• N=C(N)NCCN1CCCCCCC1 = 39.5
• NC1=NC(=O)C(c2ccccc2)O1 (centres undefined) = 36.74
• CCn1cc(C(=O)O)c(=O)c2cc(F)c(N3CCNCC3)cc21 = 38.85
• CCOP(=S)(OCC)Oc1nc(Cl)c(Cl)cc1Cl = 32.23
• CC1CC(OC(=O)C(O)c2ccccc2)CC(C)(C)C1 (centres undefined) [CYCLANDELATE] = 39.5
• CCCN1C[C@H](CSC)C[C@@H]2c3cccc4[nH]cc(c34)C[C@H]21 [PERGOLIDE] = 37.43
• C1CCC(C(CC2CCCCN2)C2CCCCC2)CC1 (centres undefined) = 32.08
